Record form. Attribute: Efficacy GIPR. Fill in for each entry.
Target: T1, human GIPR (glucose-dependent insulinotropic polypeptide receptor) (human, UniProt P48546 22-466)
T1 sequence (looked up): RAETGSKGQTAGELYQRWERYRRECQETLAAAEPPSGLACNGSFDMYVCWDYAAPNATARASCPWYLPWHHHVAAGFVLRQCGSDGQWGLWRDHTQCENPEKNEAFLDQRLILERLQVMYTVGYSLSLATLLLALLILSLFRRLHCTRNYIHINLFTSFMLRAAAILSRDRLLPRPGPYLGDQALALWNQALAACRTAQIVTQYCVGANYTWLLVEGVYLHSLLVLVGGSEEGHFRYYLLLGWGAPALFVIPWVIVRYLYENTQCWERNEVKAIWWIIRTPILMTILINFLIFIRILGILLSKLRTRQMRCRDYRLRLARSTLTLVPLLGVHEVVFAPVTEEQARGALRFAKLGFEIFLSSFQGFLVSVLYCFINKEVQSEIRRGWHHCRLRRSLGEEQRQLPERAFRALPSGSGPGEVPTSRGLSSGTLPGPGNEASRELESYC
Test: cell-based or functional assay
*1 amine or outer side, *2 acyl side, *3 side chain or, on linkers, in order; H or OH if unused. Where no end group is shown, it is not given here. Side-chain parts run from the residue outwards. [ ]: non-standard residue; d: D form. The star is where a group is joined. C18 diacid = O=C(O)CCCCCCCCCCCCCCCCC(=O)*; γGlu = O=C(O)[C@H](CCC(=O)[*:2])N[*:1]; Decanoyl = CCCCCCCCCC(=O)*; AEEA = NCCOCCOCC(=O)O; Aib = CC(C)(N)C(=O)O
No unit in the answer, please; the number alone is enough.

Given item HADGTFTSDYST[Aib]LDK([AEEA-AEEA-γGlu-C18 diacid])LAARDFINWLIQTKGKKNDWKHNITQ-OH [Compound 22] , the value recorded as its Efficacy GIPR is 93

Given item HADGTFTSDYST[Aib]LDKLAARDFINWLIQTKGKKNDWKHNITQK([AEEA-AEEA-γGlu-C18 diacid])-OH [Compound 27] , the value recorded as its Efficacy GIPR is 124

Given item HADGTFTSDYSTILDKLAARDFINWLIQTKGKK([AEEA-AEEA-γGlu-C18 diacid])NDWKHNITQ-OH [Compound 24] , the value recorded as its Efficacy GIPR is 96

Given item HXDGTFISDYSTILDNLAARDFINWLIQTKITK (Aib at position 2; K33 acylated with C10, K(C10); C-terminus -OH) [Compound 2] , the value recorded as its Efficacy GIPR is 99

Given item H[Aib]EGTFISDYSTILDNLAARDFINWLIQTKITK(Decanoyl)-NH2 [Compound 11] , the value recorded as its Efficacy GIPR is 89

Given item HXDGTFISDYSTILDNLAARDFINWLIQTKITK (Aib at position 2; K33 acylated with C10 via γGlu linker, K(γGlu-C10); C-terminal amide (-NH2)) [Compound 17] , the value recorded as its Efficacy GIPR is 97
